# Test system: U2OS
# Protocol Summary: Multiplex assay against U2OS
# Format: toxicity, cell-based
# Condition Details: human, 24 h, 1 µM, compound concentration 1 uM, replicate 1
# YES = Population Membrane Permeable-Phenotype (%) below 10% (exclusive); NO = Population Membrane Permeable-Phenotype (%) at/above 10%

Some solved cases for reference:
Cl.Cl.NC1(c2ccc(-c3nc4ccn5c(=O)[nH]nc5c4cc3-c3ccccc3)cc2)CCC1; NO
CC(C)(C)c1cnc(CSc2cnc(NC(=O)C3CCNCC3)s2)o1; NO
CC(C)N1CCC(C)(C)c2cc(C#Cc3ccc(C(=O)O)cc3)ccc21; YES
c1ccc2oc(-c3csc(C4CCN(Cc5nc6ncccc6[nH]5)CC4)n3)cc2c1; YES
CNc1oc(-c2cccc3ccccc23)nc1C#N; YES
COc1cc2c(Nc3ccc(NC(=O)c4ccccc4)cc3)ncnc2cc1OCCCN1CCOCC1; NO

Now consider the entry below.
Q. Does the reported Population Membrane Permeable-Phenotype (%) of CCOc1cc2ncc(C#N)c(Nc3ccc(OCc4cccc(F)c4)c(Cl)c3)c2cc1NC(=O)/C=C/CN(C)C stay below 10%?
A. NO
